Inhibition of binding (%) values, listed per item
Biological target: T1, hCMV gB (expressed in HEK293T cells) (human cytomegalovirus, UniProt P06473 32-906)
T1 construct: whole, on cells; also called envelope glycoprotein B; UL55
T1 sequence (P06473 32-906 limits assumed): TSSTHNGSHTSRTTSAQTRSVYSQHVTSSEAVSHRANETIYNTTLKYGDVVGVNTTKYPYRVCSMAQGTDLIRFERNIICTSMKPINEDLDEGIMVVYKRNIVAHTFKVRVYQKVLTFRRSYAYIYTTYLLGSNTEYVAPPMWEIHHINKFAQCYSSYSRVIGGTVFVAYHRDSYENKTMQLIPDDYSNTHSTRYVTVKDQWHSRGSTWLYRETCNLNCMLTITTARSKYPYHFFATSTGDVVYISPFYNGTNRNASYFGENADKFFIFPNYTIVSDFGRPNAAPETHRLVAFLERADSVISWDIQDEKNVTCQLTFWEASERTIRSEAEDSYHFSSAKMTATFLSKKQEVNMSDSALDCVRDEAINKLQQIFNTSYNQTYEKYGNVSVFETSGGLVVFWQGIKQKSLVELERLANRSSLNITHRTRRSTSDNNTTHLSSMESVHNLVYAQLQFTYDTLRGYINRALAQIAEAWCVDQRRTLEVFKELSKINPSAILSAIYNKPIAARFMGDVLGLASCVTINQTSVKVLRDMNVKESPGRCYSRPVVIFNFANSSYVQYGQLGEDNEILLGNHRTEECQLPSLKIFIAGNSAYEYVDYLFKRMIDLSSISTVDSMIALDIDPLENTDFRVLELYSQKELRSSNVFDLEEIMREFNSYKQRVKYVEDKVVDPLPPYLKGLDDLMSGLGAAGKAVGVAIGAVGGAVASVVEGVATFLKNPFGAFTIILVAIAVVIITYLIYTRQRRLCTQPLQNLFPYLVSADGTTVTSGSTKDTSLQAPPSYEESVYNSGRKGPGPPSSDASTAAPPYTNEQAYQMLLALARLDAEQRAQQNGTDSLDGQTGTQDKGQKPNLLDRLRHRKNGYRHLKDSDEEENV
Experiment: competitor: 4H9-biotin; cell staining
Report the value in % with no unit label.

Sample answers from the record:
>  <Binder>
7H3 (antibody, V domains shown, human IgG; also called 7H3-biotin) VH: QVQLVQSGAEVKNPGASVKVSCKASGYTFTDYYIHWVRQAPGQGLEWMGWFNPNSGGTNFVQNFQGRVTMTRDTSISTAYMELSRLRSDDTAMYYCAKDSAKTASAYYGLNFFYYGMDVWGQGTTVTVSS VL: QSVLSQPPSASGTPGQRVTISCSGSSSNIGKNYVYWYQQVPGTAPKLLMFKNNQRPSGVPDRFSGSKSGTSASLAISGLRSEDEADYYCSAWDGSLSRPLFGGGTKVTVL

>  <Unit tag>
%

>  <Observed result>
0

$$$$
>  <Binder>
5F1 (antibody, V domains shown, human IgG; also called 5F1-biotin) VH: AVQLVESGGGLAQPGRSLRLSCKVSGFTFSSYEMNWVRQAPGKGLEWIAYIDFTGSTIYYADSVKGRFTISRDTARNSLYLQMNKLRVEDTAVYYCVRDAGRWGTSWYYFDYWGQGTLVTVSS VL: QSVLTQPPSVSGAPGQRVTISCTGLSSNIGAGYDIHWYQQIPGKAPKLLIYGNNNRPSGVPDRFSGSKSGTSVSLAITGLQAEDEADYYCQSYDSSLNGWVFGGGTRLTVL

>  <Unit tag>
%

>  <Observed result>
100

$$$$

Query binder follows.
Field Inhibition of binding (%) (entry 2B11 (antibody, V domains shown, human IgG; also called 2B11-biotin) VH: AVRLVESGGGLAQPGRSLRLSCQVSGFTFGSYEMNWVRQAPGKGLEWIAYIDFTGSTIYYADSVKGRFTISRNTARNSLYLQMNSLRVEDTAVYYCVRDAGRWGTSWYYFDYWGQGTRVTVSP VL: QSVLTQPPSVSGAPGQRVTISCTGISSNIGAGYDIHWYQQIPGKAPKLLVYGNNNRPSGVPDRFSGSKSGTSVSLAITGLQVEDEADYYCQSYDNSLNGWVFGGGTRLTVL ) reads 100
